Entry source: patent US4525358A

test system: general behaviour of mice; experiment: general behaviour of mice (Irwin's test), tranquilization; type: in vivo; settings: male mice; intraperitoneal
observedProperty: Tranquilizing dose (first manifestations of tranquilization) (mg/kg)
Could you give me the number in mg/kg? Just the number is fine.

Cl.Cl.NC(=O)COCCOCCN1CCN(C(c2ccccc2)c2ccc(Cl)cc2)CC1 (stereo not shown)
34
NC(=O)COCCN1CCN(C(c2ccccc2)c2ccc(Cl)cc2)CC1 (stereo not shown)
38.7
Cl.Cl.NC(=O)COCCOCCN1CCN(C(c2ccccc2)c2ccccc2)CC1
94
O=C(O)COCCN1CCN(C(c2ccccc2)c2ccc(Cl)cc2)CC1 (stereo not shown)
138

// Input: O=C1Nc2ccc(Cl)cc2C(c2ccccc2)=NC1O (stereo not shown) [Oxazepam, reference compound] . Output its Tranquilizing dose (first manifestations of tranquilization) only.
2.6

// Input: O=C([O-])COCCN1CCN(C(c2ccccc2)c2ccc(Cl)cc2)CC1.[K+] (stereo not shown) . Output its Tranquilizing dose (first manifestations of tranquilization) only.
46.2

// Input: O=C(O)COCCN1CCN(C(c2ccccc2)c2ccccc2)CC1 . Output its Tranquilizing dose (first manifestations of tranquilization) only.
106

// Input: O.O=C(O)COCCN1CCN(C(c2ccccc2)c2ccc(F)cc2)CC1 (stereo not shown) . Output its Tranquilizing dose (first manifestations of tranquilization) only.
372

// Input: Cl.Cl.O=C(O)COCCOCCN1CCN(C(c2ccccc2)c2ccc(Cl)cc2)CC1 (stereo not shown) . Output its Tranquilizing dose (first manifestations of tranquilization) only.
505

// Input: COc1ccc(C(c2ccccc2)N2CCN(CCOCC(N)=O)CC2)cc1.Cl.Cl (stereo not shown) . Output its Tranquilizing dose (first manifestations of tranquilization) only.
136

// Input: Cl.Cl.O=C(O)COCCOCCN1CCN(C(c2ccccc2)c2ccccc2)CC1 . Output its Tranquilizing dose (first manifestations of tranquilization) only.
141

// Input: NC(=O)COCCN1CCN(C(c2ccccc2)c2ccc(F)cc2)CC1 (stereo not shown) . Output its Tranquilizing dose (first manifestations of tranquilization) only.
115

----------
test system: mice; details: intraperitoneal, two animals out of three
Entries annotated with measured Lethal dose (2/3)

Sample records with Lethal dose (2/3):
Cl.Cl.NC(=O)COCCN1CCN(C(c2ccccc2)c2ccccc2Cl)CC1 (centres unmarked)
460 mg/kg
Cl.Cl.NC(=O)COCCOCCN1CCN(C(c2ccccc2)c2ccccc2)CC1
282 mg/kg
Cl.Cl.O=C(O)COCCOCCN1CCN(C(c2ccccc2)c2ccccc2)CC1
942 mg/kg
NC(=O)COCCN1CCN(C(c2ccccc2)c2ccc(Cl)cc2)CC1 (centres unmarked)
232 mg/kg
NC(=O)COCCN1CCN(C(c2ccccc2)c2ccccc2)CC1
255 mg/kg

// Input: NC(=O)COCCN1CCN(C(c2ccccc2)c2ccc(F)cc2)CC1 (centres unmarked) . Output its Lethal dose (2/3) only.
386 mg/kg

// Input: Cl.Cl.NC(=O)COCCOCCN1CCN(C(c2ccccc2)c2ccc(Cl)cc2)CC1 (centres unmarked) . Output its Lethal dose (2/3) only.
339 mg/kg

// Input: Cl.Cl.O=C(O)COCCOCCN1CCN(C(c2ccccc2)c2ccc(Cl)cc2)CC1 (centres unmarked) . Output its Lethal dose (2/3) only.
505 mg/kg

// Input: O=C(O)COCCN1CCN(C(c2ccccc2)c2ccccc2)CC1 . Output its Lethal dose (2/3) only.
708 mg/kg

// Input: COc1ccc(C(c2ccccc2)N2CCN(CCOCC(N)=O)CC2)cc1.Cl.Cl (centres unmarked) . Output its Lethal dose (2/3) only.
456 mg/kg

// Input: O.O=C(O)COCCN1CCN(C(c2ccccc2)c2ccc(F)cc2)CC1 (centres unmarked) . Output its Lethal dose (2/3) only.
372 mg/kg
